target: EPHB6 (Homo sapiens); construct: purchased Eurofins DiscoverX KINOMEscan (scanTK); experiment: KINOMEscan ScanTK; type: binding; conditions: read-out: %Control @1000nM
Sequence (O15197 32-1021): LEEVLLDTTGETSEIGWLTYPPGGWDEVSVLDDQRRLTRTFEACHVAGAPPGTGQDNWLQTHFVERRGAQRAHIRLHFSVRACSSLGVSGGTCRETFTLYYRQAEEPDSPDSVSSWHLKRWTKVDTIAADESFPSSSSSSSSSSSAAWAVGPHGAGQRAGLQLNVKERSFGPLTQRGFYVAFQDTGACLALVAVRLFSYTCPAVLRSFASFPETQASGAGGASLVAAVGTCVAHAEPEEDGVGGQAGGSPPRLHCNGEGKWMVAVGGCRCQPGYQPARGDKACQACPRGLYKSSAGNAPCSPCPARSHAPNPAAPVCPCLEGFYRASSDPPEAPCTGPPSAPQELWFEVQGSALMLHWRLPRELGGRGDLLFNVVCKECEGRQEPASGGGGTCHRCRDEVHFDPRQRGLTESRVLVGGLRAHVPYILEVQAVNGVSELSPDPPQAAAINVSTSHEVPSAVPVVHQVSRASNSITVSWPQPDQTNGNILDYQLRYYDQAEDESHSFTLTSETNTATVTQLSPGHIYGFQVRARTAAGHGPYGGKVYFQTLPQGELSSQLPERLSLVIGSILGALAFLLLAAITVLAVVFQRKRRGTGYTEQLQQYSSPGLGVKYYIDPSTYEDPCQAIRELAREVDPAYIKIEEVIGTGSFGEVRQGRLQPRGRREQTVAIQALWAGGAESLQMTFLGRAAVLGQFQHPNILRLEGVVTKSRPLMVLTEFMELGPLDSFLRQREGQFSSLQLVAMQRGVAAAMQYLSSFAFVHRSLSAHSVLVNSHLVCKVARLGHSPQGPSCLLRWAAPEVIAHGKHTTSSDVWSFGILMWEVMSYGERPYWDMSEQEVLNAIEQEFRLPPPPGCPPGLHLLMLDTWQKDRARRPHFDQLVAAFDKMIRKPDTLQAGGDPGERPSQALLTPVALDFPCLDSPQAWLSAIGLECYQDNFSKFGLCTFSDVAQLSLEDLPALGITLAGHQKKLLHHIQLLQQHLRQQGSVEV
As shown below, each of these compounds has a reported remaining binding at 1 µM value.
ENDPOINT NAME: remaining binding at 1 µM (%)

COMPOUND | READOUT NUMBER
CNC(=O)c1cnc(S(C)(=O)=O)nc1N1CCCC(n2nc(-c3ccc(Oc4ccccc4)cc3)c3c(N)ncnc32)C1 (centres unmarked) [Compound 8d] | 34
CCOC(=O)c1cnc(S(C)(=O)=O)nc1N1CCC[C@@H](n2nc(-c3ccc(Oc4ccccc4)cc3)c3c(N)ncnc32)C1 [Compound 8c] | 72
C=CC(=O)N1CCC[C@@H](n2nc(-c3ccc(Oc4ccccc4)cc3)c3c(N)ncnc32)C1 [Compound 1g, Ibrutinib, reference compound] | 18
Cc1cnc(S(C)(=O)=O)nc1N1CCCC(n2nc(-c3ccc(Oc4ccccc4)cc3)c3c(N)ncnc32)C1 (centres unmarked) [Compound 8a] | 24
COC(=O)c1cnc(S(C)(=O)=O)nc1N1CCCC(n2nc(-c3ccc(Oc4ccccc4)cc3)c3c(N)ncnc32)C1 (centres unmarked) [Compound 8b] | 8.9
